Test system: HCI09 (cells of a triple-negative luminal androgen receptor type breast cancer xenograft)
MEASUREMENT NOTES: cell viability (% of vehicle); higher = less cytotoxic;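 note: PDX cells carrying CMV promoter-driven luciferase, viability read as total photon flux per second by IVIS imaging following D-luciferin, vehicle control 0.1% DMSO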
RUN PARAMETERS: 10 µM; 72 h
cell viability values, listed per item
Give the figure by itself; no unit, no explanation.

CNCC(O)C(O)C(O)C(O)CO (stereo unspecified)	97.6

Attention now shifts to the item below.
// query Look at this compound and give its reported cell viability. Cc1nc(C(=O)NCC(=O)O)c(O)c2ccc(Oc3ccccc3)cc12
// result 88.7

* * *

System: HCI13 (cells of an ER-positive luminal breast cancer xenograft)
MEASUREMENT NOTES: cell viability (% of vehicle); higher = less cytotoxic
RUN PARAMETERS: 10 µM; 72 h
Entries are sorted into classes by cell viability as follows: bin 0: < 70; bin 1: ≥ 70 and < 100; bin 2: ≥ 100

Worked examples follow.
CCOC(=O)c1ncn2c1CN(C)C(=O)c1cc(F)ccc1-2	bin 1
O=C(C=Cc1ccc(O)c(O)c1)OC1CC(O)(C(=O)O)CC(O)C1O (centres undefined)	bin 2
CN(Cc1cc(Br)cc(Br)c1N)C1CCCCC1.Cl [Bromhexine HCl]	bin 0
CC1=C2N=C(C=C3N=C(C(C)=C4[N-]C(C)(C5N=C1C(C)(CCC(=O)NCC(C)OP(=O)([O-])OC1C(CO)OC(n6cnc7cc(C)c(C)cc76)C1O)C5CC(N)=O)C(C)(CC(N)=O)C4CCC(N)=O)C(C)(CC(N)=O)C3CCC(N)=O)C(C)(C)C2CCC(N)=O.[CH3-].[Co+3] (centres undefined)	bin 2

// query For this compound, which bin applies? O=N[O-].[Na+] [Sodium Nitrite]
// result bin 0

// query For this compound, which bin applies? O=C(Oc1ccccc1C(=O)O)c1ccccc1O
// result bin 1

// query For this compound, which bin applies? OCCN(CCO)c1nc(N2CCCCC2)c2nc(N(CCO)CCO)nc(N3CCCCC3)c2n1
// result bin 1

* * *

Tested on: HCI09
MEASUREMENT NOTES: cell viability (% of vehicle); higher = less cytotoxic
RUN PARAMETERS: 10 µM; 72 h
RECORDED METRIC: cell viability
Give the figure by itself; no unit, no explanation.

Example entries begin here.
C1=C\COCc2cc(ccc2OCCN2CCCC2)Nc2nccc(n2)-c2cccc(c2)COC/1	25.9
Cc1ccc(NC(=O)c2ccc(CN3CCN(C)CC3)cc2)cc1Nc1nccc(-c2cccnc2)n1 [Imatinib (STI571)]	86.3
Cc1ccnc2c1NC(=O)c1cccnc1N2C1CC1	122

// query # get_value(readout= cell viability, system= HCI09) for CCCCCCOC(=O)N=C(N)c1ccc(NCc2nc3cc(C(=O)N(CCC(=O)OCC)c4ccccn4)ccc3n2C)cc1.CS(=O)(=O)O [Dabigatran etexilate mesylate]
// result 81.5

// query # get_value(readout= cell viability, system= HCI09) for CC(=O)Oc1ccccc1C(=O)O
// result 98.5

* * *

Test system: HCI16 (cells of a triple-negative basal-like breast cancer xenograft)
MEASUREMENT NOTES: cell viability (% of vehicle); higher = less cytotoxic
RUN PARAMETERS: 10 µM; 72 h
Define the label as true (1) when cell viability is strictly less than 100 and as false (0) in all remaining cases.

Worked examples follow.
CC(C)NCC(O)c1ccc(O)c(O)c1.Cl (stereo unspecified) [Isoprenaline HCl]	false (0)
C=C1C(=CC=C2CCCC3(C)C2CCC3C(C)CCCC(C)C)CC(O)CC1O (stereo unspecified) [Alfacalcidol]	false (0)
COC(=O)Nc1nc2ccc(Sc3ccccc3)cc2[nH]1 [Fenbendazole]	false (0)
CCN(CCO)CCCOc1ccc2c(Nc3cc(CC(=O)Nc4cccc(F)c4)[nH]n3)ncnc2c1 [Barasertib (AZD1152-HQPA)]	false (0)
COc1cc(Nc2c(C#N)cnc3cc(OCCCN4CCN(C)CC4)c(OC)cc23)c(Cl)cc1Cl [Bosutinib (SKI-606)]	true (1)

// query Hi there! Is cell viability for NS(=O)(=O)NCC/N=C1\NON\C1=C(\N=O)Nc1ccc(F)c(Br)c1 below 100, do you know?
// result false (0)

// query Hi there! Is cell viability for COc1cccc2c1C(=O)c1c(O)c3c(c(O)c1C2=O)C[C@@](O)(C(C)=O)C[C@@H]3O[C@H]1C[C@H](N)[C@H](O)[C@H](C)O1.Cl [Daunorubicin HCl] below 100, do you know?
// result true (1)

// query Hi there! Is cell viability for COc1cc2nccc(Oc3ccc(NC(=O)Nc4cc(C)on4)c(Cl)c3)c2cc1OC [Tivozanib (AV-951)] below 100, do you know?
// result true (1)

// query Hi there! Is cell viability for COc1cc2c(cc1Cc1cccc(Cl)c1F)c(=O)c(C(=O)O)cn2C(CO)C(C)C (stereo unspecified) [Elvitegravir (GS-9137)] below 100, do you know?
// result false (0)

// query Hi there! Is cell viability for O=C(NCC(O)CO)c1ccncc1Nc1ccc(I)cc1F (stereo unspecified) below 100, do you know?
// result false (0)

// query Hi there! Is cell viability for CCCc1nc(C(C)(C)O)c(C(=O)O)n1Cc1ccc(-c2ccccc2-c2nn[nH]n2)cc1 [Olmesartan] below 100, do you know?
// result false (0)

// query Hi there! Is cell viability for Cc1cc(C)cc(OCC2CNC(=O)O2)c1 (stereo unspecified) [Metaxalone] below 100, do you know?
// result false (0)

* * *

cell viability values, listed per item
Tested on: HCI09
MEASUREMENT NOTES: cell viability (% of vehicle); higher = less cytotoxic
RUN PARAMETERS: 10 µM; 72 h
Give the figure by itself; no unit, no explanation.

Example entries begin here.
C=CC(=O)Nc1cccc(Nc2nc(Nc3ccc(N4CCN(C(C)=O)CC4)cc3OC)ncc2C(F)(F)F)c1	63.8
CN(C)C(CCOc1cccc2ccccc12)c1ccccc1.Cl (centres undefined) [Dapoxetine HCl]	96.9
COc1ccc2c(c1OC)C(=O)OC2C1c2c(cc3c(c2OC)OCO3)CCN1C.Cl (centres undefined) [Noscapine HCl]	127

Attention now shifts to the item below.
// query Look at this molecule and give its reported cell viability. CN(C)C(=O)c1cc2cnc(Nc3ccc(N4CCNCC4)cn3)nc2n1C1CCCC1
// result 114

* * *

System: HCI13
MEASUREMENT NOTES: cell viability (% of vehicle); higher = less cytotoxic
RUN PARAMETERS: 10 µM; 72 h
Counter-ions that a name gives are not always drawn.
cell viability values, listed per item
Give the figure by itself; no unit, no explanation.

Example entries begin here.
CCCS(=O)(=O)Nc1ccc(F)c(C(=O)c2c[nH]c3ncc(-c4ccc(Cl)cc4)cc23)c1F [Vemurafenib (PLX4032, RG7204)]	106
Cc1cccc(C)c1OCC(C)N.Cl (stereo not drawn) [Mexiletine HCl]	122
Cl.Clc1cccc(Cl)c1NC1=NCCN1 [Clonidine HCl]	111
CS(=O)(=O)O.CS(=O)(=O)O.N=C(N)c1ccc2cc(OC(=O)c3ccc(N=C(N)N)cc3)ccc2c1 [Nafamostat Mesylate(FUT-175)]	95.5
Nc1[nH]c(=O)ncc1F [Flucytosine]	135
CO[C@H]1O[C@@H]2O[C@@]3(C)CC[C@H]4[C@H](C)CC[C@@H]([C@H]1C)[C@@]24OO3 [Artemether (SM-224)]	84.1
CCOC(=O)C(CCc1ccccc1)NC1CSC(c2cccs2)CN(CC(=O)O)C1=O.Cl (stereo not drawn) [Temocapril HCl]	116
Nc1nc(CC(=O)Nc2ccc(CCNCC(O)c3ccccc3)cc2)cs1 (stereo not drawn) [Mirabegron (YM178)]	140
CC(c1ncncc1F)C(O)(Cn1cncn1)c1ccc(F)cc1F (stereo not drawn) [Voriconazole]	137
Cc1nccn1CC1CCc2c(c3ccccc3n2C)C1=O.Cl.O.O (stereo not drawn) [Ondansetron hydrochloride dihydrate]	143

// query Look at this molecule and give its reported cell viability. CC(=O)C1CCC2C3CCC4=CC(=O)CCC4(C)C3CCC12C (stereo not drawn) [Progesterone]
// result 154

// query Look at this molecule and give its reported cell viability. CN1C2=CC(=O)C(=NNC(N)=O)C=C2CC1S(=O)(=O)[O-].[Na+] (stereo not drawn) [Carbazochrome sodium sulfonate (AC-17)]
// result 81

// query Look at this molecule and give its reported cell viability. C[N+](C)(C)CC(O)CC(=O)[O-] [L-Carnitine inner salt]
// result 112

// query Look at this molecule and give its reported cell viability. Cc1noc(NS(=O)(=O)c2ccc(N)cc2)c1C [Sulfisoxazole]
// result 107

// query Look at this molecule and give its reported cell viability. CC(C)Nc1cc(-c2c[nH]c(C(=O)NC(CO)c3cccc(Cl)c3)c2)c(Cl)cn1 (stereo not drawn)
// result 43.5

// query Look at this molecule and give its reported cell viability. CCCC(CCC)C(=O)O.CCCC(CCC)C(=O)[O-].[Na+] [Divalproex Sodium]
// result 114

// query Look at this molecule and give its reported cell viability. C=C1C(CO)C(O)CC1n1cnc2c(=O)nc(N)[nH]c21.O (stereo not drawn) [Entecavir Hydrate]
// result 82.7

// query Look at this molecule and give its reported cell viability. CCCCCCCCCC(=O)NC(Cc1c[nH]c2ccccc12)C(=O)NC(CC(N)=O)C(=O)NC(CC(=O)O)C(=O)NC1C(=O)NCC(=O)NC(CCCN)C(=O)NC(CC(=O)O)C(=O)NC(C)C(=O)NC(CC(=O)O)C(=O)NCC(=O)NC(CO)C(=O)NC(C(C)CC(=O)O)C(=O)NC(CC(=O)c2ccccc2N)C(=O)OC1C (stereo not drawn) [Daptomycin]
// result 163

// query Look at this molecule and give its reported cell viability. Nc1nc(N)c2nc(-c3ccccc3)c(N)nc2n1 [Triamterene]
// result 120
